Reported Kd values for a set of binders
assaySystem: SARS-CoV-2 spike protein receptor binding domain (RBD2) (SARS-CoV-2, UniProt P0DTC2 319-537)
methodSummary: SPR, immobilized antibody, RBD injected, 1:1 fit
propertyMeasured: Kd (nM)

{"binder": "E08 minibody (scFv-Fc) (Fc fusion) SYVLTQPPSVSVAPGKTARITCGGNNIGWKSVHWYQQKPGQAPVLVVYDDSDRPSGIPERFSGSNSGNTATLTISRVEAGDEADYYCQVWDSSSDLVVFGGGTKLTVLSGGSTITSYNVYYTKLSSSGTQVQLVQSGAEVKKPGSSVKVSCKASGGTFSSYAISWVRQAPGQGLEWMGGIIPIFGTANYAQKFQGRVTITADESTSTAYMELSSLRSEDTAVYYCARASGRWLQFWHYYGMDVWGQGTTVTVSS", "propertyMeasured": "Kd", "measured": 3.6}
{"binder": "H03 minibody (scFv-Fc) (Fc fusion) SYELTQPPSVSVAPGQTARITCGGNNIGSKSVHWYQQKPGQAPVLVIYYDSDRPSGIPERFSGSNSGNTATLTISRVEAGDEADYYCQVWDSSSALYVFGTRTKVTVLSGGSTITSYNVYYTKLSSSGTQVQLVESGGGLVQPGRSLRLSCAASGFTFDDYAMHWVRQAPGKGLEWVSGISWNSGSIGYADSVKGRFTISRDNAKNSLYLQVNSLRAEDTAVYYCARELIVGTTSPQTDAFDIWGQGTMVTVSS", "propertyMeasured": "Kd", "measured": 117}
{"binder": "S01 IgG1 (antibody, V domains shown, also called 501) VH: QVQLVESGGGLVKPGGSLRLSCAASGFTVGSNYMSWVRQAPGKGLEWVSVIYSGGSTYYADSVKGRFTISRDNSKNTLYLQMNSLRAEDTAVYYCARGSSGAWYFDLWGRGTLVTVSS VL: EIVMTQSPSSLSASVGDSVTITCQASQDISNYLNWYQQKPGKAPKLLIYDASNLETGVPSRFSGGGSGTDFTLTITSLQPEDIATYYCQQYDNFPPTFGPGTKVDIK", "propertyMeasured": "Kd", "measured": 170}

Numbers sourced from patent US12018066.
